Target: Voltage-dependent L-type calcium channel subunit alpha-1C (Oryctolagus cuniculus)
Sequence (P15381 whole entry): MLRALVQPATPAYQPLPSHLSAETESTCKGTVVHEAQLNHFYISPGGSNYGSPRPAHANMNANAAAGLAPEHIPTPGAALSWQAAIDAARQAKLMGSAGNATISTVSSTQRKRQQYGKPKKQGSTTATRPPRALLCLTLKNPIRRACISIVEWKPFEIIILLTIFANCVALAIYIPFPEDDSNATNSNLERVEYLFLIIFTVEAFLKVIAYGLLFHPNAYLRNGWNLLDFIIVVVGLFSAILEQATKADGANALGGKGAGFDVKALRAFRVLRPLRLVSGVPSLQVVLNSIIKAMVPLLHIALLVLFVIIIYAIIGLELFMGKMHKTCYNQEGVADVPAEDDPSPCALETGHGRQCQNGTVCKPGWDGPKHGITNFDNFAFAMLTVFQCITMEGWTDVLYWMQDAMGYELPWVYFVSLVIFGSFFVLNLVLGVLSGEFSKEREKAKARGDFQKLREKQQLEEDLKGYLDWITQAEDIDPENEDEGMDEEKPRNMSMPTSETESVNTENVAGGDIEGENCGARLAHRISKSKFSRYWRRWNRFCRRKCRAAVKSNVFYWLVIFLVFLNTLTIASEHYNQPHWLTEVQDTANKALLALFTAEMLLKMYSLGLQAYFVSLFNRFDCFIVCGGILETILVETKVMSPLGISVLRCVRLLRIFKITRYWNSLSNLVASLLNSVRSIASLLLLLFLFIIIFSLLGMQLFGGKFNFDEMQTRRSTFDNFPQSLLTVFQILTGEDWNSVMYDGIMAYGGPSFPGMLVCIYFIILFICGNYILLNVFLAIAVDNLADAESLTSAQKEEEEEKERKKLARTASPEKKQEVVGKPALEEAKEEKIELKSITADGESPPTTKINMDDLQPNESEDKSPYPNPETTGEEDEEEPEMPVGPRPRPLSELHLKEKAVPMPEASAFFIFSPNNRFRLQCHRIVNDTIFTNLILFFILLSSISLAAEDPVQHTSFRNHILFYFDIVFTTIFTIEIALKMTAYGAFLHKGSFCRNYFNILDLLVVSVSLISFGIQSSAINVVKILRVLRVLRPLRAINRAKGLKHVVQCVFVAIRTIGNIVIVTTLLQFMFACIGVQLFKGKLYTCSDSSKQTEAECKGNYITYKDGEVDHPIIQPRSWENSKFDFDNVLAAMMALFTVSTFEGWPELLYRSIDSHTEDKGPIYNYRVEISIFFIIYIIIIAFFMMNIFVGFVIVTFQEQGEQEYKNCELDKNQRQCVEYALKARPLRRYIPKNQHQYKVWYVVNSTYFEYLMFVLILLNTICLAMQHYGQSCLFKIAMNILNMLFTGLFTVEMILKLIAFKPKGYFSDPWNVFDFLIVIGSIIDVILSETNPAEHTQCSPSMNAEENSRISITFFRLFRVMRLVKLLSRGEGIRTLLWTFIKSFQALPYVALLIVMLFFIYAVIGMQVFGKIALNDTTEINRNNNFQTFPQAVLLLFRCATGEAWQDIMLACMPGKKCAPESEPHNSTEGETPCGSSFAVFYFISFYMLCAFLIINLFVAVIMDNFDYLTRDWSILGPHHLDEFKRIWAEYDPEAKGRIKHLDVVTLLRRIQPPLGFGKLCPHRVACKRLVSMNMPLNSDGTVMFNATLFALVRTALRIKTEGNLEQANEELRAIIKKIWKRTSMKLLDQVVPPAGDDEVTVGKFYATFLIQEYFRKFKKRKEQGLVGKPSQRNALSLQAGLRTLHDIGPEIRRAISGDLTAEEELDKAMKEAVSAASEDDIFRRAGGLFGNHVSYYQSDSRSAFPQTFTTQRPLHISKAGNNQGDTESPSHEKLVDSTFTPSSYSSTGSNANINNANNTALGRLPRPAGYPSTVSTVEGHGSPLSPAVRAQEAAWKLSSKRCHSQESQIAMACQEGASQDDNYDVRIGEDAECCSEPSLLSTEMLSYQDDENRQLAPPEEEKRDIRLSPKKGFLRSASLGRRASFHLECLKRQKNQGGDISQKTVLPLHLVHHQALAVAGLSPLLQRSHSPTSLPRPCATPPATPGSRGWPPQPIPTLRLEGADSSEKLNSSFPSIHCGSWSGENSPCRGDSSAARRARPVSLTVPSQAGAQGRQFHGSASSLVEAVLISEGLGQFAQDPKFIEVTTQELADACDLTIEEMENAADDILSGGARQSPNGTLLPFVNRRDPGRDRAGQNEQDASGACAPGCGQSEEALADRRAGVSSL
Experiment: Blockade of calcium-evoked contractions in depolarized aortic strips
pIC50: −log10 of the molar value.
Kindly return Condition met if reported pIC50 is no lower than 8; return Condition not met if it is lower.

# example entries with known answers
Prompt line: Dear colleague, could you confirm whether COCCO/C(O)=C1\C(C)=NC(C)=C(C(=O)OCN2C(=O)c3ccccc3S2(=O)=O)C1c1cccc(Cl)c1Cl (configuration not stated) has pIC50 at or above 8?
Response line: Condition met

Prompt line: Dear colleague, could you confirm whether CC1=NC(C)=C(C(=O)OCN2C(=O)c3ccccc3S2(=O)=O)C(c2ccccc2C(F)(F)F)/C1=C(\O)OCC1CCCCO1 (configuration not stated) has pIC50 at or above 8?
Response line: Condition met

New cases:
Prompt line: Dear colleague, could you confirm whether CC1=NC(C)=C(C(=O)OCN2C(=O)c3ccccc3S2(=O)=O)C(c2ccccc2[N+](=O)[O-])/C1=C(\O)OC(C)C (configuration not stated) has pIC50 at or above 8?
Response line: Condition met

Prompt line: Dear colleague, could you confirm whether CCO/C(O)=C1\C(C)=NC(C)=C(C(=O)OCN2C(=O)c3ccccc3S2(=O)=O)C1c1cccc([N+](=O)[O-])c1 (configuration not stated) has pIC50 at or above 8?
Response line: Condition met

Prompt line: Dear colleague, could you confirm whether CCCO/C(O)=C1\C(C)=NC(C)=C(C(=O)OCN2C(=O)c3ccccc3S2(=O)=O)C1c1cccc([N+](=O)[O-])c1 (configuration not stated) has pIC50 at or above 8?
Response line: Condition not met

FYI, the data here is from ChEMBL document CHEMBL1126270.
